Assay System: Gal(b1-3)GalNAc(b1-3)Gal(a1-4)Gal(b1-4)Glc
Experimental Details: glycan array binding signal (z-score within array); higher = stronger binding
Test Conditions: glycan notation: IUPAC condensed, linker removed
Many of the other results were omitted from the sample, so the strongest signals are more common in it than they were.
Below, each of the binders is paired with its reported glycan array binding signal (z-score) value.
// no unit string in output, number only

Suppose we examine the binder PA-IL (Pseudomonas aeruginosa), Q05097 (protein) MAWKGEVLANNEAGQVTSIIYNPGDVITIVAAGWASYGPTQKWGPQGDREHPDQGLICHDAFCGALVMKIGNSGTIPVNTGLFRWVAPNNVQGAITLIYNDVPGTYGNNSGSFSVNIGKDQS ; what glycan array binding signal (z-score) value has been reported? -0.228

Suppose we examine the binder Pwp5 ND (Candida glabrata) (protein) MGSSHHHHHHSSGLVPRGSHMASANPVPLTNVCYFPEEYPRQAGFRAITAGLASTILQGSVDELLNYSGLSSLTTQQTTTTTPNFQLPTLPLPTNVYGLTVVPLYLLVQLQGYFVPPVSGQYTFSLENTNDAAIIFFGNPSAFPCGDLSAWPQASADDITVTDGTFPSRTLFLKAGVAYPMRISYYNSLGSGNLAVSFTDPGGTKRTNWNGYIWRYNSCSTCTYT ; what glycan array binding signal (z-score) value has been reported? 3.41

Further cases:
Suppose we examine the binder AFCNVH (Aspergillus fumigatus) (protein) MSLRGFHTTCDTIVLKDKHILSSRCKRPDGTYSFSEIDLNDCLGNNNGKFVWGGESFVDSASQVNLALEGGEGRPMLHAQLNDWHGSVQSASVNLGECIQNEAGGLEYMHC ; what glycan array binding signal (z-score) value has been reported? -0.212
